- measured.on: T1, Human Scribble PDZ3 domain (human, UniProt Q14160 1002-1092)
- T1 sequence: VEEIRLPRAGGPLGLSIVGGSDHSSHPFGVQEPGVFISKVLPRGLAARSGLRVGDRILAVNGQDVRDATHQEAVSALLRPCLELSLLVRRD
- run.description: ITC
The binders listed here are annotated with their Kd.
Respond numerically; units are µM and should not be typed.

Req: Quick one: give measured Kd for QEEWETVM [PTHR PBM peptide, 8-mer]
Resp: 13.4

# next binder below
Req: Quick one: give measured Kd for DEEASGPERPPALLQEEWETVM [PTHR PBM peptide, 22-mer]
Resp: 19.2
